Origin of the recorded values: patent US20250027068

TEST_SYSTEM: pooled human IgG (human IgG1,2,3 and 4)
MEASUREMENT_LABEL: Enzyme Activity Endpoint Assay (purified): IgG (ng/µL)
Entry rule: numbers only, all in ng/µL.

Solved entries (count: 3):
[
  {
    "PROTEIN": "PRT-355 (protein) MSQTEDSESLQRLRDIEDFQAEKKMQNVVYTKWLDGVDVKDHDFRKIVDGNEAYYATPLLNGRGFYDINKDFNRDSDKCAAAVAANMFHYWLDINRDNVDRFLRQNPEKHGIIELPDGQLKLSDFLNTYESDHGYRDKSKLFDFISENFNGPVWTDKLLDNYINGYAYNYKYGRLIEDPTKNTSKINFFKEVFNEKILTNNHSIRNQNELSVLLSEALYTGKAIGLSYGPAGTRHSLGHIISVWGADLDADGNVVAIYVTDSDDKKLTIGDERVGLKRYKISTDDENRLRLTAYEETHNTGGQIRGLWTLDTGKYAWADYFDKTEQTGTDQAEQ",
    "MEASURE_UNIT": "ng/µL",
    "RECORDED_VALUE": 0
  },
  {
    "PROTEIN": "PRT-499 (protein) MVTSVWTKGVTPPADFRKIVDGNIAYYHAPYVANQGWYDITKTFNGKDDLLCGAATAGNMLHWWFDQNKEYIEAYLKKHPEKQKIMFGDQELLDVRKAINTKGSQKNSELFNYFRDKAFPNLSARRLGVMPDLVLDMFINGYYLNVTKTQTTDVNRTYQEKDKRGGIFDAVFTRGDQSKLLTSRHDLKNKGLKEISDLIKQELTEGKALGLSHTYANVRINHVINLWGADFDSDGNLKAIYVTDSDSNASIGMKKYFVGVNSAGKVAISAKEIKEDNIGAQVLGLFTLSTGQDIWNQTNLEHHHHHH",
    "MEASURE_UNIT": "ng/µL",
    "RECORDED_VALUE": 436
  },
  {
    "PROTEIN": "PRT-327 (protein) MTITSVWTKGVTPPTPEDFRENNEDVLHAPYVANQGWYDITKTFDGKDNLLCGAATAGNMLHWWFDQNKEEIERYLKKHPEKQKIIFNNQELFDVKAAIDTKDSQTNSKLFDYFRDKAFPNLSARQLGVMPDLVLDMFINGYYLNLGKTQSTDVNRPYQDKDKRGGIFDAVFTRGDQTTLLTARHDLKNKGLNEISDLIKQELTEGKALALSHTYANVRINHVINLWGADFDAEGELIAIYVTDSDANPSIGMKKYFVGRNANGKVAISAKKIEGDNIGAQVLGLFTLSTGQDIWQKLS",
    "MEASURE_UNIT": "ng/µL",
    "RECORDED_VALUE": 472
  }
]

# context switch: different protein, same Enzyme Activity Endpoint Assay (purified): IgG
Inquiry: Which Enzyme Activity Endpoint Assay (purified): IgG is listed for PRT-492 (protein) MVTSVWTKGVTPPTDFRKIVDGNIAYYHAPYKAGQGWYDITKAFDGGDNLLCGAATAGNMLHWWFDQNKEQIENYLKKHPEKQKIIFNNQELFDLKAAIDTKDSQTNSELFNYFKEKAFPYLSTKHLGVFPDHVIDMFINGYRLSLTNHGPTPVKRGSKDKRGGIFDAVFTRGVQSKLLTNRHDLKNKTLKEISDLIKQELTEGKALGISHTYANVRINHVINLWGADFDAEGNLEAIYVTDSDTNASIGMKKYFVGVNSNGKVAISAKEIEEDNIGAQVLGLFTLSTGQDIWNQTNLEHHHHHH ?
Reply text: 362
